Data origin, for the record: patent US20250263489A1

The following binders are shown together with reported Signal intensity (ratio to IGF11-16) at 16.7 nM, PathHunter values.
Biological target: IGF-1 receptor on the cells of the PathHunter IGF1R Functional Assay (DiscoverX) (UniProt P08069 31-1367)
Sequence (P08069 31-1367): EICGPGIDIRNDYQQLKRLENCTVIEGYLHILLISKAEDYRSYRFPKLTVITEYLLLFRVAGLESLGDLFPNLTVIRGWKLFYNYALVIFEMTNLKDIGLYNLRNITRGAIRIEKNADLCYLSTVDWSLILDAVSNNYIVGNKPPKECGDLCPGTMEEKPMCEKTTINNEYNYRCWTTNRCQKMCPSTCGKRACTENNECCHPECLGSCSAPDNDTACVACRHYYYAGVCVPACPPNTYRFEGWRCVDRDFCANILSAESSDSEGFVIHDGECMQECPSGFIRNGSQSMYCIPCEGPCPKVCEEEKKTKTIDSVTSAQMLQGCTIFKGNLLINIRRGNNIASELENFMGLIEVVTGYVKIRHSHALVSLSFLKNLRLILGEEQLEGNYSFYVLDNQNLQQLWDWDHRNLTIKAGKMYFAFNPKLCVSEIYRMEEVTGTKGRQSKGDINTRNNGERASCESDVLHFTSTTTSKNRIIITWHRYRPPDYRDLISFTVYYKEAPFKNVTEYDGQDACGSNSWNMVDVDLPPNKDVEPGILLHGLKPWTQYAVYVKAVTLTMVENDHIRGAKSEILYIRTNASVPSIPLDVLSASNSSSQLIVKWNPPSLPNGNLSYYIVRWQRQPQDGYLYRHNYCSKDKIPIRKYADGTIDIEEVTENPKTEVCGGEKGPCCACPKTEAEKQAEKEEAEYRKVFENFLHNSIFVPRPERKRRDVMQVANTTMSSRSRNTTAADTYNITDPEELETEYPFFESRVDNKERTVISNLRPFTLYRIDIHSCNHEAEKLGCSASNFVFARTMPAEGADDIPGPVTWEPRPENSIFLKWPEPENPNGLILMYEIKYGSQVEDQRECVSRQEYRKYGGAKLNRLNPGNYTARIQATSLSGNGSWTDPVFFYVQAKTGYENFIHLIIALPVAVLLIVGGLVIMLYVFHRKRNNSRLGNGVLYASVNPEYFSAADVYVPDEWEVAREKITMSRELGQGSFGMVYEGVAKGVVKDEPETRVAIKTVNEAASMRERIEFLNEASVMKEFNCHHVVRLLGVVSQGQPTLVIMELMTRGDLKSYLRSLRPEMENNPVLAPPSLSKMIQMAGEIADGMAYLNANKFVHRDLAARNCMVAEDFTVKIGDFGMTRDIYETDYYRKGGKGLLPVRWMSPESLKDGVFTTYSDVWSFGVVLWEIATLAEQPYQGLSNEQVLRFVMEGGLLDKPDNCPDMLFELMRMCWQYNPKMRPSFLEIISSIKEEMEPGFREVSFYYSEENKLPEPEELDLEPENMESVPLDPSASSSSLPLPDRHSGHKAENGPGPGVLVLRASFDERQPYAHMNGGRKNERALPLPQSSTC
Test: cell-based or functional assay

Examples with their reported Signal intensity (ratio to IGF11-16) at 16.7 nM, PathHunter follow.
[
  {
    "binder": "FW1-var9-mFR-L2 + L3 (antibody, V domains shown) VH: QVQLVQSGAEVKKPGASVKVSCKASGYTFTSYWMHWVRQAPGQGLEWMGETNPSNSVTNYAQKFQGRVTLTVDTSTSTAYMELSSLRSEDTAVYYCTIGRGRGFAYWGQGTLVTVSS VL: DIQMTQSPSSVSASVGDRVTITCRASQNINFWLSWYQQKPGNIPKLLIYKASNLHTGVPSRFSGSGSGTDFTLTISSLQPEDIATYYCLQGQSYPYTFGGGTKLEIK",
    "reported.result": "0.5 ratio to human chimeric IGF11-16"
  },
  {
    "binder": "human chimeric IGF11-16 antibody (antibody, V domains shown, also called Chimera; human mouse chimeric antibody IGF11-16) VH: QIQLQQPGAELVKPGASVKLSCKAPGYTFTSYWMHWVKQRPGQGLEWIGETNPSNSVTNYNEKFKSKATLTVDKSSSTAYMQLSSLTSEDSAVYYCTIGRGRGFAYWGQGTLVTVSA VL: DIQMNQSPSSLSASLGDTITITCRASQNINFWLSWCQQKPGNIPKLLIYKASNLHTGVPSRFSGSGSGTDFTLTISSLQPEDIATYYCLQGQSYPYTFGGGTKLEIK",
    "reported.result": "1 ratio to human chimeric IGF11-16"
  }
]

Let us examine a further case.
Endpoint output: Signal intensity (ratio to IGF11-16) at 16.7 nM, PathHunter of FW1-var9-mFR-H1 (antibody, V domains shown) VH: QIQLQQPGAELVKPGASVKLSCKAPGYTFTSYWMHWVRQAPGQGLEWMGETNPSNSVTNYAQKFQGRVTLTVDTSTSTAYMELSSLRSEDTAVYYCTIGRGRGFAYWGQGTLVTVSS VL: DIQMTQSPSSVSASVGDRVTITCRASQNINFWLSWYQQKPGKAPKLLIYKASNLHTGVPSRFSGSGSGTDFTLTISSLQPEDFATYYCLQGQSYPYTFGGGTKLEIK . Value?
1.08 ratio to human chimeric IGF11-16
